Test: differential killing of epithelial or mesenchymal cells, primary screen, imaging, PC-3E GFP, TEM4-18 mCherry, co-culture (AID 1345086);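 note: cells exposed to compound for 72 h before imaging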
Conditions: imaging cell counts, measured here: epithelial PC-3E GFP cell survival, at 1 µM
Readout type: normalised cell number
Respond using a number only.

Query :: Please report the measured normalised cell number for COC(=O)c1c(Cl)nc(Cl)c2ccccc12
Result :: 0.85

Query :: Please report the measured normalised cell number for C=COCC(F)(F)F
Result :: 1.12

Query :: Please report the measured normalised cell number for CC(C)N=c1cc2n(-c3ccc(Cl)cc3)c3ccccc3nc-2cc1Nc1ccc(Cl)cc1
Result :: 0.92

Query :: Please report the measured normalised cell number for O=C(O)C(O)[C@H](O)[C@H](O)[C@H](O)[C@H](O)CO (some centres undefined)
Result :: 1.07

Query :: Please report the measured normalised cell number for CC[C@@H]1OC(=O)C[C@@H](O)[C@H](C)[C@@H](O[C@@H]2O[C@H](C)[C@@H](O)[C@H](N(C)C)[C@H]2O)[C@@H](CCN2C[C@H](C)C[C@H](C)C2)C[C@@H](C)C(=O)/C=C/C(C)=C\[C@@H]1CO[C@@H]1O[C@H](C)[C@@H](O)[C@@H](OC)[C@H]1OC
Result :: 1.1

Query :: Please report the measured normalised cell number for C[C@H](CCC(=O)O)[C@H]1CCC2C3C(CC[C@@]21C)[C@@]1(C)CC[C@@H](O)C[C@H]1C[C@H]3O (some centres undefined)
Result :: 0.99

Query :: Please report the measured normalised cell number for O=C1CN2Cc3c(ccc(Cl)c3Cl)N=C2N1
Result :: 0.86

Query :: Please report the measured normalised cell number for C[C@H](O)CCc1ccc(C(=O)O)nc1
Result :: 1.16

Query :: Please report the measured normalised cell number for CC[C@]1(O)CC2CN(CCc3c([nH]c4ccccc34)[C@@](C(=O)OC)(c3cc4c(cc3OC)N(C=O)[C@H]3[C@@](O)(C(=O)OC)[C@H](OC(C)=O)[C@]5(CC)C=CCN6CC[C@]43[C@@H]65)C2)C1 (some centres undefined)
Result :: 0.19

Query :: Please report the measured normalised cell number for CO/C(C)=C1/C(=O)C(CO)OC1O (centres undefined)
Result :: 0.93

Query :: Please report the measured normalised cell number for COc1c(F)c(F)cc2c(=O)c(C(=O)NO)cn(C3CC3)c12
Result :: 0.97

Query :: Please report the measured normalised cell number for COc1ccc2c(c1)OCC(Cc1ccc(O)c(OC)c1)C2=O (centres undefined)
Result :: 1.04

Query :: Please report the measured normalised cell number for COc1ccc(-c2cc(=O)c3c(O)cc(OC)c(OC)c3o2)c(OC)c1
Result :: 0.97

Query :: Please report the measured normalised cell number for COC(=O)c1c[nH]c2c(OC)c(F)c(F)cc2c1=O
Result :: 1.06

Query :: Please report the measured normalised cell number for C[C@H](O)[C@@H]1N[C@H]2N(C1=O)c1ccccc1C21CC2C(=O)NC1c1nc3ccccc3c(=O)n12 (some centres undefined)
Result :: 0.88

Query :: Please report the measured normalised cell number for CN(C)CC/C=C1/c2ccccc2COc2ccccc21
Result :: 1.34

Query :: Please report the measured normalised cell number for O=c1c2cc(O)c(O)cc2oc2cc(O)c(C3O[C@H](CO)[C@H](O)[C@@H](O)[C@H]3O)c(O)c12 (some centres undefined)
Result :: 0.99

Query :: Please report the measured normalised cell number for O=C1C=CC2(Oc3cccc4cccc(c34)O2)[C@H]2[C@H]1[C@@H](O)C=C[C@H]2O
Result :: 1.06

Query :: Please report the measured normalised cell number for COc1cc(C(=O)O)cc(OC)c1O
Result :: 1
